Hey, just so you know, these numbers are from the supplement of paper PMC10567573.

protein stability index reference
B1: TRAF3IP2 (parent)
chain: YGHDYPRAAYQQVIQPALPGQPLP

Variants of: B1
Assay: protein stability index of a GFP-peptide fusion (GPS, HEK-293T) (PSI 1-6); higher = more stable;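 also: lentivirally expressed fusions sorted by FACS into six bins by GFP to DsRed ratio, PSI derived from sequencing read proportions per bin multiplied by bin number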
Details: c terminus: a fixed tail appended

Observe how each entry below is paired with its result.
Mutation Notation: P19W
Assay Metric: protein stability index
Test Result: 1.73

Mutation Notation: P24D
Assay Metric: protein stability index
Test Result: 2.45

Mutation Notation: Y1T
Assay Metric: protein stability index
Test Result: 3.54

Mutation Notation: R7V
Assay Metric: protein stability index
Test Result: 2.56

Mutation Notation: L23Q
Assay Metric: protein stability index
Test Result: 2.24

Mutation Notation: H3P
Assay Metric: protein stability index
Test Result: 4.18

Mutation Notation: Y10P
Assay Metric: protein stability index
Test Result: 2.28

Mutation Notation: V13L
Assay Metric: protein stability index
Test Result: 2.26

Ask: Given the entry `Q21I` , report its measured protein stability index.
Result: 2.79

Ask: Given the entry `P24T` , report its measured protein stability index.
Result: 2.59

Ask: Given the entry `I14M` , report its measured protein stability index.
Result: 1.49

Ask: Given the entry `Y5P` , report its measured protein stability index.
Result: 3.99
